assayed-system: Human recombinant PTP1B (hPTP1B) (Homo sapiens, UniProt P18031)
Sequence (P18031 1-435): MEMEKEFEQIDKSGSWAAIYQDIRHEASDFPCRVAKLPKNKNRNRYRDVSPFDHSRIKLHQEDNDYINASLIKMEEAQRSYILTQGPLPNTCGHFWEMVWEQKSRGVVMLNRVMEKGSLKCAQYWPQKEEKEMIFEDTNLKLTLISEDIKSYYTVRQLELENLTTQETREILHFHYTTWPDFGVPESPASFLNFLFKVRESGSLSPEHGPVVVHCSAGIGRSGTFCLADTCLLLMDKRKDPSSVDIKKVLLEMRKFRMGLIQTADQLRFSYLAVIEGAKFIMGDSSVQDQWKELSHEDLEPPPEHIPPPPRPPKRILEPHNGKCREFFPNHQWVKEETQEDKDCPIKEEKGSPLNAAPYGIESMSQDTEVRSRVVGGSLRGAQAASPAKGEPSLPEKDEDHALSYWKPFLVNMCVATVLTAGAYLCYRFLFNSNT
measurement-label: IC50 (nM)
Record the value in nM, omitting the unit from your answer.

Here's what some known entries look like.
                                   compound  measurement_label  reading
0  CCc1cc(-c2c3ccccc3c(Br)c3oc(C)c(C)c23)cc(CC)c1O[C@H](Cc1ccccc1)C(=O)O [Example 70]               IC50      330
1  Cc1c(CN2CCOCC2)sc2c(Br)c3ccccc3c(-c3cc(Br)c(O)c(Br)c3)c12 [Example 19]               IC50      697
2  Cc1sc2cc3ccccc3c(-c3ccc(O[C@H](Cc4ccccc4)C(=O)O)c(C4CCCC4)c3)c2c1C [Example 45]               IC50      203
3  Cc1sc2c(Br)c3ccccc3c(-c3cc(C(C)C)c(O[C@H](Cc4ccccc4)C(=O)O)c(C(C)C)c3)c2c1C [Example 55]               IC50       59
4  Cc1cc(-c2c3ccccc3cc3sc(C)c(C)c23)cc(C)c1O[C@H](Cc1ccccc1)C(=O)O [Example 46]               IC50     1190
5  Cc1sc2c(Br)c3ccccc3c(-c3cc(Br)c(O[C@H](Cc4ccccc4)C(=O)O)c(Br)c3)c2c1C [Example 29]               IC50      115

Ask: Tell me IC50 reported for Cc1sc2c(Br)c3ccccc3c(-c3cc(Br)c(O)c(Br)c3)c2c1C [Example 9]
Reply: 539

Ask: Tell me IC50 reported for CCN(CC)Cc1sc2c(Br)c3ccccc3c(-c3cc(Br)c(O[C@H](Cc4ccccc4)C(=O)O)c(Br)c3)c2c1C [Example 37]
Reply: 352

Ask: Tell me IC50 reported for Cc1sc2cc3ccccc3c(-c3ccc(O[C@H](Cc4ccccc4)C(=O)O)c(C(C)C)c3)c2c1C [Example 41]
Reply: 729

Ask: Tell me IC50 reported for Cc1sc2c(Br)c3ccccc3c(-c3cc(N)c(O)c(Br)c3)c2c1C [Example 23]
Reply: 743

Ask: Tell me IC50 reported for Cc1sc2c(Br)c3ccccc3c(-c3cc(Br)c(O[C@H](Cc4ccccc4)C(=O)O)c(C(C)C)c3)c2c1C [Example 40]
Reply: 110
